Assay: Rat PK (IV)
Settings: in vivo, read-out: Rat PK(IV) Vdss
experimentalReadout: Vd (L/kg)
Answer with a number only, understood to be in L/kg.

Vd reported for this compound `CCS(=O)(=O)CCN(C(=O)Cc1ccc(C(F)(F)F)c(F)c1)[C@H](C)c1nc2ncccn2c(=O)c1-c1ccc(C#N)cc1` : 0.31

* * *

Target: CXCR3 (Homo sapiens, UniProt P49682)
Construct: ChemoCentryx
Sequence (P49682 1-368): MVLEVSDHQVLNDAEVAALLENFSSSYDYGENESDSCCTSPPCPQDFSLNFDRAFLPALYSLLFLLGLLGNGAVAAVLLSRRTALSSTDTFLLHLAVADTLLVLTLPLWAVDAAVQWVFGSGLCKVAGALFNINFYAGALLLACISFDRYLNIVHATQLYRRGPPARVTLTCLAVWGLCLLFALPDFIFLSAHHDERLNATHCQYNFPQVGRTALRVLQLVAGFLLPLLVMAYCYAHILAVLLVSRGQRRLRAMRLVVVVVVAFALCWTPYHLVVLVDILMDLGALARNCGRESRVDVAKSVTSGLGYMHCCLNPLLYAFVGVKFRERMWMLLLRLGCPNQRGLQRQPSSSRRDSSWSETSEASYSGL
Test: CXCR3 binding assay in presence of human plasma
experimentalReadout: pIC50
The scale used: pIC50 is minus the common logarithm of the concentration in molar units.

The recorded pIC50 for `CCOc1ccc(-c2c([C@@H](C)N(CCS(=O)(=O)CC)C(=O)Cc3ccc(F)c(C(F)(F)F)c3)nc3ncccn23)cc1` is 7.15

Sure, the documented pIC50 for `CCOc1ccc(-c2c([C@@H](C)N(CCS(=O)(=O)CC)C(=O)Cc3ccc(F)c(C(F)(F)F)c3)nc3ccccn3c2=O)cc1` is 7.24

Entry `CCS(=O)(=O)CCN(C(=O)Cc1ccc(F)c(C(F)(F)F)c1)[C@H](C)c1nc2ncccn2c1-c1ccc(C#N)cc1` , pIC50 reported as 7.31

So, `CCS(=O)(=O)CCN(C(=O)Cc1ccc(F)c(C(F)(F)F)c1)[C@H](C)c1nc2ccccn2c(=O)c1-c1ccc(O)cc1` ? Its pIC50 was 5.39

Recorded pIC50 (compound `CCOc1ccc(-n2c([C@@H](C)N(CCS(=O)(=O)CC)C(=O)Cc3ccc(F)c(C(F)(F)F)c3)nc3ncccc3c2=O)cc1` ): 8.15

Quick note, pIC50 for `CCS(=O)(=O)CCN(C(=O)Cc1ccc(F)c(C(F)(F)F)c1)[C@H](C)c1nc2ncccn2c1-c1ccc(O)cc1` landed at 5.00
